target or test system: human APJ receptor (Homo sapiens (Human), UniProt P35414)
Sequence (P35414 whole entry): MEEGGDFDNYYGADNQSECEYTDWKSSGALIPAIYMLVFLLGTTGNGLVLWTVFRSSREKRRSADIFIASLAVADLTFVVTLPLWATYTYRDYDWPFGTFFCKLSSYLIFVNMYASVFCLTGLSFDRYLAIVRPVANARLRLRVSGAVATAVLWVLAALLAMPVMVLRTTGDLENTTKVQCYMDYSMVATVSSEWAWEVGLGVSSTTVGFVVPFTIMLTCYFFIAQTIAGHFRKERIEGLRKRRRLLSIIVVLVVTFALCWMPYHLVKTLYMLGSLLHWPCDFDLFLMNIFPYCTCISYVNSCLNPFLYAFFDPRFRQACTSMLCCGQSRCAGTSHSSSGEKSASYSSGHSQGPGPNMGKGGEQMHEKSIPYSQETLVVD
test protocol: [35S]GTPγS binding assay on membranes from CHO cells stably expressing human APJ receptor
condition parameters: read-out: Activity hAPJ SPA EC50 IP
For each entry below, report its pEC50 value.
Note: pEC50 values are expressed as the negative base-10 logarithm of concentration in M.

Entry COC[C@@H]1COc2ccc(OC)nc2-c2nnc(NS(=O)(=O)[C@@H](C)[C@H](C)c3ncc(OC)cn3)n21 (single isomer, unassigned) [Example 6.0] : reported pEC50 = ? 5.64

Given the entry COC[C@@H]1COc2cccnc2-c2nnc(NS(=O)(=O)[C@@H](C)[C@@H](OC(C)C)c3ncc(C)cn3)n21 (single isomer, unassigned) [Example 69.0] , report its measured pEC50. 6.64

Which pEC50 is reported for this compound? Cc1cnc([C@H](OC(C)C)[C@H](C)S(=O)(=O)Nc2nnc3n2[C@H](CO)COc2ncccc2-3)nc1 (mixture of isomers) 6.34

GET /values?readout=pEC50&item= COC[C@@H]1COc2c(OC)cccc2-c2nnc(NS(=O)(=O)[C@@H](C)[C@@H](OC(C)C)c3ncc(C)cn3)n21 (single isomer, unassigned) [Example 38.0] 7.19

# lookup: pEC50 of COC[C@@H]1COc2cc(F)c(F)cc2-c2nnc(NS(=O)(=O)[C@@H](C)[C@@H](OC(C)C)c3ncc(C)cn3)n21 (mixture of isomers) [Example 16.0] 5.77

I have this compound here, COC[C@@H]1COc2ncccc2-c2nnc(NS(=O)(=O)[C@@H](C)[C@H](OC(C)C)c3ncc(C)cn3)n21 (single isomer, unassigned) [Example 67.0] , and I need its recorded pEC50. 6.60

Which value of pEC50 has been reported for COC[C@@H]1COc2ccc(OC)nc2-c2nnc(NS(=O)(=O)[C@@H](C)[C@H](C)c3ncc(C)cn3)n21 (single isomer, unassigned) [Example 13.0] in the records? 6.43

Consider the compound shown here: COCC1COc2ccc(OC)cc2-c2nnc(NS(=O)(=O)[C@@H](C)[C@@H](OC(C)C)c3ncc(C)cn3)n21 (single isomer, unassigned) [Example 152.0] What is its recorded pEC50? 7.43

Consider the compound shown here: COC[C@@H]1COc2ccc(OC)nc2-c2nnc(NS(=O)(=O)[C@@H](C)[C@H](C)c3ncc(C)cn3)n21 (mixture of isomers) [Example 10.0] What is its recorded pEC50? 6.10

Entry COc1ccc2c(n1)-c1nnc(NS(=O)(=O)[C@@H](C)[C@@H](OC(C)C)c3ncc(C)cn3)n1[C@H](CO)CO2 (single isomer, unassigned) [Example 18.0] : reported pEC50 = ? 6.19

Returns the measured pEC50 for the input compound. Input: COC[C@@H]1COc2ccc(F)cc2-c2nnc(NS(=O)(=O)[C@@H](C)[C@H](OC)c3ncc(C)cn3)n21 (single isomer, unassigned) [Example 27.0] 6.31

Can you look up the measured pEC50 of COc1ccc2c(c1)-c1nnc(NS(=O)(=O)[C@@H](C)[C@@H](OC(C)C)c3ncc(C)cn3)n1C(CO)CO2 (single isomer, unassigned) [Example 151.0] for me? 5.90

Which pEC50 value belongs to COc1ccc2c(c1)-c1nnc(NS(=O)(=O)[C@@H](C)[C@@H](OC(C)C)c3ncc(C)cn3)n1C(CO)CO2 (single isomer, unassigned) [Example 150.0] ? 5.73

pEC50 lookup needed for COC[C@@H]1COc2ccccc2-c2nnc(NS(=O)(=O)[C@@H](C)[C@H](C)c3ncc(OC)cn3)n21 (single isomer, unassigned) [Example 1.0] , thanks. 6.92

pEC50 lookup needed for COC[C@@H]1COc2ccccc2-c2nnc(NS(=O)(=O)[C@@H](C)[C@H](C)c3ncc(OC)cn3)n21 (single isomer, unassigned) [Example 2.0] , thanks. 6.11

Dear colleague, I am looking for the recorded pEC50 of the following compound: COC[C@@H]1COc2ncccc2-c2nnc(NS(=O)(=O)[C@@H](C)[C@H](OC(C)C)c3ncc(C)cn3)n21 (single isomer, unassigned) [Example 68.0] 5.41

Can you share its pEC50? I mean this compound: COC[C@@H]1COc2ncccc2-c2nnc(NS(=O)(=O)CCc3ncc(C)cn3)n21 (single isomer, unassigned) 6.74

Item under review: COC[C@@H]1COc2ccccc2-c2nnc(NS(=O)(=O)[C@@H](C)[C@@H](OC(C)C)c3ncc(C)cn3)n21 (single isomer, unassigned) [Example 5.0] . Reported pEC50? 6.89

Name the recorded pEC50 for CC(C)O[C@@H](c1ncc(Cl)cn1)[C@H](C)S(=O)(=O)Nc1nnc2n1[C@H](CO)COc1ncccc1-2 (mixture of isomers) . 6.14

Given the compound COC[C@@H]1COc2cnccc2-c2nnc(NS(=O)(=O)[C@@H](C)[C@@H](OC(C)C)c3ncc(C)cn3)n21 (mixture of isomers) [Example 65.0] , what is its reported pEC50? 5.92

Return reported pEC50; argument: COC[C@@H]1COc2ccc(OC)nc2-c2nnc(NS(=O)(=O)[C@@H](C)[C@@H](OC(C)C)c3ncc(C)cn3)n21 (single isomer, unassigned) [Example 14.0] 6.40

Query (compound): Cc1cnc([C@H](OC(C)C)[C@H](C)S(=O)(=O)Nc2nnc3n2[C@H](CO)COc2cccnc2-3)nc1 (mixture of isomers) ; field requested: pEC50 5.68

Consider the compound shown here: COC[C@@H]1COc2ncccc2-c2nnc(NS(=O)(=O)[C@@H](C)[C@H](OC(C)C)c3ncc(C)cn3)n21 (mixture of isomers) [Example 59.0] What is its recorded pEC50? 5.92

What does the record list as pEC50 for COC[C@@H]1COc2cccnc2-c2nnc(NS(=O)(=O)[C@@H](C)[C@@H](OC(C)C)c3ncc(C)cn3)n21 (mixture of isomers) [Example 61.0] ? 6.36

* * *

Task for the reader: assign each of the following molecules its reported EC50.
target or test system: UniProt P35414
test protocol: [35S]GTPγS binding assay on membranes from CHO cells stably expressing human APJ receptor
condition parameters: read-out: Activity hAPJ SPA EC50 IP
Write down the numeric answer in nM and omit the unit.

So what's the measured EC50 for this one? COC[C@@H]1COc2ccc(OC)nc2-c2nnc(NS(=O)(=O)[C@@H](C)[C@@H](OC(C)C)c3ncc(C)cn3)n21 (single isomer, unassigned) [Example 15.0] 37

Fill in: EC50 of COC[C@@H]1COc2ccc(F)cc2-c2nnc(NS(=O)(=O)[C@@H](C)[C@@H](OC(C)C)c3ncc(C)cn3)n21 (single isomer, unassigned) [Example 25.0] is ___ 28

Bench note: what EC50 did COC[C@@H]1COc2cc(F)c(F)cc2-c2nnc(NS(=O)(=O)[C@@H](C)[C@@H](OC(C)C)c3ncc(C)cn3)n21 (single isomer, unassigned) [Example 20.0] show? 990

Would you kindly share the measured EC50 for `C=C1COc2ccccc2-c2nnc(NS(=O)(=O)[C@@H](C)[C@@H](OC(C)C)c3ncc(C)cn3)n21` ? 1000

Need EC50 of COC[C@@H]1COc2c(OC)cccc2-c2nnc(NS(=O)(=O)[C@@H](C)[C@H](C)c3ncc(OC)cn3)n21 (single isomer, unassigned) [Example 8.0] , thanks. 270

* * *

What pEC50 was measured for each of the following?
target or test system: UniProt:P35414
test protocol: [35S]GTPγS binding assay on membranes from CHO cells stably expressing human APJ receptor
condition parameters: read-out: Activity hAPJ SPA EC50 IP
Bear in mind: pEC50 is minus log10 of a mol/L concentration; give just that figure.

Quick one: pEC50 for COC[C@@H]1COc2ccc(F)cc2-c2nnc(NS(=O)(=O)[C@@H](C)[C@H](OC)c3ncc(C)cn3)n21 (stereo in doubt) [Example 24.0] ? 6.59

Given the entry COC[C@@H]1COc2cnccc2-c2nnc(NS(=O)(=O)[C@@H](C)[C@@H](OC(C)C)c3ncc(C)cn3)n21 (stereo in doubt) [Example 43.0] , report its measured pEC50. 5.92

Look at this molecule and give its reported pEC50. COC[C@@H]1COc2ccc(OC)nc2-c2nnc(NS(=O)(=O)[C@@H](C)[C@H](C)c3ncc(OC)cn3)n21 (single isomer, unassigned) [Example 7.0] 6.60

* * *

target or test system: human APJ receptor (Homo sapiens (Human), UniProt P35414)
test protocol: [35S]GTPγS binding assay on membranes from CHO cells stably expressing human APJ receptor
condition parameters: read-out: Activity hAPJ SPA EC50 IP
Please go through the items and note down their pEC50.
// scale note: pEC50 = -log10(conc_M); give the bare number

Given Cc1cnc([C@H](OC(C)C)[C@H](C)S(=O)(=O)Nc2nnc3n2[C@H](CO)OCc2ccc(C(F)(F)F)cc2-3)nc1 (single isomer, unassigned) , state its recorded pEC50. 5.68

Look up pEC50 for this molecule: COC[C@@H]1COc2ccc(OC)nc2-c2nnc(NS(=O)(=O)[C@@H](C)[C@@H](OC(C)C)c3ncc(C)cn3)n21 (mixture of isomers) [Example 11.0] 7.39

Could you tell me which pEC50 is on file for Cc1cnc([C@H](OC(C)C)[C@H](C)S(=O)(=O)Nc2nnc3n2-c2c(F)cccc2/C=C\C[C@@H]3C)nc1 (single isomer, unassigned) [Example 53.0] ? 6.66

Item under review: COC[C@@H]1COc2cccnc2-c2nnc(NS(=O)(=O)[C@@H](C)[C@@H](OC(C)C)c3ncc(C)cn3)n21 (single isomer, unassigned) [Example 70.0] . Reported pEC50? 5.92
